Recorded values, source patent US11236055B2.

target: mouse TGR5 receptor (Mus musculus); construct: expressed in transfected cells; host or cells: HEK293-EBNA (293 c18, ATCC CRL10852), Hygromycin B selection; experiment: Mouse TGR5 cAMP production assay (HTRF, Cisbio cAMP HiRange); type: cell-based; conditions: HEK293-EBNA cells overexpressing mouse TGR5, HTRF cAMP HiRange; coded A-D
Sequence (Q80SS6 whole entry): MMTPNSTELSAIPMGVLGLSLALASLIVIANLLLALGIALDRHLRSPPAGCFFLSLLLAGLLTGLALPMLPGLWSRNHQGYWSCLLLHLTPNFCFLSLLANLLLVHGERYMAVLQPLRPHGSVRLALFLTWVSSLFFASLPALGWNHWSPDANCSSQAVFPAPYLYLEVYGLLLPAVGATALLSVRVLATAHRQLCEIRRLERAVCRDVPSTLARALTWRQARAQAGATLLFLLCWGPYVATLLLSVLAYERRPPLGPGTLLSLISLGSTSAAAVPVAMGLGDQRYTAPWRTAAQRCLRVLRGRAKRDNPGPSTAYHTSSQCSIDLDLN
pEC50: −log10 of the molar value.
Measured pEC50, listed per entry for reference.

CCc1cnccc1-c1cccc([C@H](C)N(CCCC(=O)NCCNS(=O)(=O)NCC(=O)O)S(=O)(=O)c2cccc(Cl)c2C)c1 [Compound 38AA]    > 7.00
Cc1cnccc1-c1cccc(C(C)(C)N(CCCC(=O)NCCN(C)C)S(=O)(=O)c2cccc(Cl)c2C)c1 [Compound 21AD]    6.00 to 7.00
CCc1cnccc1-c1cc(OC)cc(C(C)(C)NS(=O)(=O)c2ccccc2C(F)(F)F)c1    6.00 to 7.00
COc1cnccc1-c1ccnc(CNS(=O)(=O)c2ccccc2C(F)(F)F)c1    4.52 to 6.00
CCc1cnccc1-c1cccc(C2CN(C(=O)CCCC(=O)O)CCN2S(=O)(=O)c2cccc(Cl)c2C)c1 (stereo not shown) [Compound 46AA]    > 7.00
CC(C)(NS(=O)(=O)c1ccccc1C(F)(F)F)c1cccc(-c2ccncc2CO)c1    6.00 to 7.00

Exercise: Query: pEC50; subject: COc1cnccc1-c1cccc(C2CN(C(=O)CCC(=O)O)CCN2S(=O)(=O)c2cccc(Cl)c2C)c1 (stereo not shown) [Compound 46AH]
Solution: > 7.00

Exercise: Query: pEC50; subject: COc1cccc(S(=O)(=O)N2CCN(C(=O)CS(=O)(=O)O)CC2c2cccc(-c3ccncc3C)c2)c1 (stereo not shown) [Compound 49AB]
Solution: > 7.00

Exercise: Query: pEC50; subject: Cc1cnccc1-c1cccc([C@H](C)N(CCCCNC(=O)NCCS(=O)(=O)NCC(=O)O)S(=O)(=O)c2ccccc2C(F)(F)F)c1 [Compound 28AA]
Solution: 6.00 to 7.00

Exercise: Query: pEC50; subject: CCc1cnccc1-c1cccc([C@H](C)N(CCCCNS(=O)(=O)CCC(=O)O)S(=O)(=O)c2cccc(Cl)c2C)c1 [Compound 26AE]
Solution: > 7.00

Exercise: Query: pEC50; subject: "Cc1cnccc1-c1cccc([C@H](CC(=O)N(C)C)NS(=O)(=O)c2ccccc2C(F)(F)F)c1"
Solution: 6.00 to 7.00

Exercise: Query: pEC50; subject: "COc1cnccc1-c1cccc(C(C)(C)NS(=O)(=O)c2ccc(Cl)cc2[N+](=O)[O-])c1"
Solution: 6.00 to 7.00

Exercise: Query: pEC50; subject: Cc1cnccc1-c1cccc([C@H](C)N(CCCC(=O)N(CC(=O)O)CC(=O)O)S(=O)(=O)c2cccc(Cl)c2C)c1 [Compound 21AK]
Solution: 4.52 to 6.00

###

Measured EC50, listed per entry for reference.
Biological target: human TGR5 receptor (Homo sapiens, UniProt Q8TDU6)
Sequence (Q8TDU6 whole entry): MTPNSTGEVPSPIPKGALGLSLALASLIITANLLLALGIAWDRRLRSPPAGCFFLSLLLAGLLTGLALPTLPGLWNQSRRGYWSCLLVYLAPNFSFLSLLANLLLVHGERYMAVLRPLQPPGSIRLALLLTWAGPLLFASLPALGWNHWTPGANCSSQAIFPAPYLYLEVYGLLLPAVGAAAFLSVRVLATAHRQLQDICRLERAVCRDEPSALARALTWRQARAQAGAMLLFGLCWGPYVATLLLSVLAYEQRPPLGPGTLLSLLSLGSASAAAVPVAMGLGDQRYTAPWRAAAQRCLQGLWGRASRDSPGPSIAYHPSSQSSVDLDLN
Experiment: Human TGR5 cAMP production assay
Details: human TGR5, luminescent cAMP assay; coded A-D; read-out: Human TGR5 Lum. cAMP Activity (EC50)
Method: Human TGR5 cAMP Production Assay We evaluated the Compounds of the present invention for their ability to induce cAMP production using CHO-K1 cells overexpressing the human TGR5 receptor. […] Test compounds were serially diluted (half-log dilutions) in DMSO and then further diluted 1:50 in PBS, 10 mM HEPES buffer. […] Luminescent signal was then detected using the Viewlux instrument (Perkin-Elmer, Waltham, Mass.). […]

// solved cases for EC50 follow
Cc1cnccc1-c1cccc(C(C)(C)NS(=O)(=O)c2cccc(Cl)c2Cl)c1    < 100 nM
COc1cnccc1-c1cccc(C2(NS(=O)(=O)c3cccc(C(F)(F)F)c3)CC2)c1    100 to 999 nM
Cc1cnccc1-c1cccc([C@H](C)N(CCCCC(=O)NCCS(=O)(=O)NCCC(=O)O)S(=O)(=O)c2ccccc2C(F)(F)F)c1 [Compound 20BM]    < 100 nM
CC(C)(NS(=O)(=O)c1cccc(C(F)(F)F)c1)c1cccc(-c2ccnc(N)c2)c1    100 to 999 nM

Exercise: Query: EC50; subject: Cc1cnccc1-c1cccc([C@H](C)N(CCCC(=O)NCCS(=O)(=O)NCCC(=O)O)S(=O)(=O)c2cccc(Cl)c2C)c1 [Compound 21AL]
Solution: < 100 nM

Exercise: Query: EC50; subject: Cc1c(Cl)cccc1S(=O)(=O)N(CCCC(=O)NCCS(=O)(=O)O)[C@@H](C)c1cccc(-c2ccnnc2)c1 [Compound 20BO]
Solution: 100 to 999 nM
